- system under test: UniProt:Q9UNQ0
- Sequence (Q9UNQ0 whole entry): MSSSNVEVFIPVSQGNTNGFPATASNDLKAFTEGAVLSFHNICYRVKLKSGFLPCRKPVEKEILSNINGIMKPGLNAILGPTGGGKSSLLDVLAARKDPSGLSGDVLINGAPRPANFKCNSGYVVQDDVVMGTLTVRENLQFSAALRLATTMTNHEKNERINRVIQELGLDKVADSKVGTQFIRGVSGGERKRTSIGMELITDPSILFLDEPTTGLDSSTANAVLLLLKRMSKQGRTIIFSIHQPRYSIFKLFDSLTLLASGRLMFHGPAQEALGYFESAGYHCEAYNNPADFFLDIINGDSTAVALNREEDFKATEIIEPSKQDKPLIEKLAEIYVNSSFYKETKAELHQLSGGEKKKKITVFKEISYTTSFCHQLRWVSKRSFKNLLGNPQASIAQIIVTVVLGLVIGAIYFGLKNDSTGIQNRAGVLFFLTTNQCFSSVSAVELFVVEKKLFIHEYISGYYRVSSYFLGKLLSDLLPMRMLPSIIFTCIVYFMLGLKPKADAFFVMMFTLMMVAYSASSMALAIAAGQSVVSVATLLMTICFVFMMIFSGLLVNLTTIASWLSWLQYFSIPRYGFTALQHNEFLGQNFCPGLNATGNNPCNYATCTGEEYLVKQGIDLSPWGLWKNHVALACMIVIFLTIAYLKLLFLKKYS
- run description: Inhibition of ABCG2 in human MCF7/Topo cells by Hoechst 33342 assay
- Format: cell-based
- run parameters: read-out: IC50
pIC50: −log10 of the molar value.

[
  {
    "smiles representation": "COc1cc(OC)c2c(=O)cc(N3CCN(CCc4ccc([N+](=O)[O-])cc4)CC3)oc2c1",
    "value modifier": "=",
    "pIC50": 4.43
  },
  {
    "smiles representation": "COc1cc(OC)c2c(=O)cc(C(=O)N3CCN(Cc4ccc([N+](=O)[O-])cc4)CC3)oc2c1",
    "value modifier": "<",
    "pIC50": 4.00
  },
  {
    "smiles representation": "COc1cc(O)c2c(=O)cc(C(=O)N3CCN(Cc4ccccc4[N+](=O)[O-])CC3)oc2c1",
    "value modifier": "=",
    "pIC50": 4.46
  },
  {
    "smiles representation": "COc1ccc(CN2CCN(c3cc(=O)c4c(OC)cc(OC)cc4o3)CC2)cc1",
    "value modifier": "<",
    "pIC50": 4.00
  }
]
